Biological target: T1, recombinant human Trop-2/Fc/His fusion protein (manufactured by R&D) (human, UniProt P09758 27-274, limits assumed)
T1 construct: Bought reagent; also called Trop-2/Fc/His chimeric protein; recombinant Trop-2
T1 sequence: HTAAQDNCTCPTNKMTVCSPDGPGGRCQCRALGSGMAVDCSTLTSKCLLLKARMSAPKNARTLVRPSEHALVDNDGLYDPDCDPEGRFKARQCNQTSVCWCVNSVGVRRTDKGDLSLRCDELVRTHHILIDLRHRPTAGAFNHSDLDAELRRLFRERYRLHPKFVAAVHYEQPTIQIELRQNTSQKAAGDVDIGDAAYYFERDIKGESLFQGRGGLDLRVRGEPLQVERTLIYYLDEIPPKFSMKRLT
Test: SPR (Biacore T100), Trop-2/Fc/His captured by Tetra-His antibody, antibody as analyte, Bivalent Analyte model, mean of duplicates
Procedure: All the operations described below were carried out using Biacore T100 (manufactured by GE Healthcare Bio-sciences). […] Using the software for analysis accompanied with the equipment, the results were analyzed based on Bivalent Analyte model to obtain the binding rate constant and the dissociation rate constant for binding of each antibody to a recombinant human Trop-2/Fc/His fusion protein. […]
result type: pKd
Answers are plain numbers, as −log10 of the molar value.

anti-Trop-2 human chimeric antibody KM4591 (antibody, human IgG1, V domains shown, Same polypeptides as KM4590 (human IgG1, kappa), made in FUT8 knockout CHO/DG44 cells, fucose content 0%) VH: QVQLQQSGPELVRPGTSVRISCKASGYTFTIYWLGWVKQRPGHGLEWIGNIFPGSAYINYNEKFKGKATLTADTSSSTAYMQLSSLTSEDSAVYFCAREGSNSGYWGQGTTLTVSS VL: DIVMTQSPSSLSVSAGEKVTMTCKSSQSLLNSGNQQNYLAWYQQKPGQPPKLLIYGASTRESGVPDRFTGSGSGTDFTLTINSVQAEDLAVYYCQSDHIYPYTFGGGTKLEIK ... 9.44
KM4097 humanized antibody HV5LV0 (antibody, V domains shown, Expressed from pKANTEX93 (human constant regions) in FUT8 knockout CHO cells; no fucose attached) VH: QVQLVQSGAEVKKPGASVKVSCKASGYTFTIYWLGWVKQAPGQGLEWIGNIFPGSAYINYNEKFKGKATITADTSTSTAYMELSSLRSEDTAVYFCAREGSNSGYWGQGTLVTVSS VL: DIVMTQSPDSLAVSLGERATINCKSSQSLLNSGNQQNYLAWYQQKPGQPPKLLIYGASTRESGVPDRFSGSGSGTDFTLTISSLQAEDVAVYYCQSDHIYPYTFGQGTKLEIK ... 9.31

The record that follows has no pKd shown yet.
Req: Specify pKd for KM4097 humanized antibody HV10LV4 (antibody, V domains shown, Expressed from pKANTEX93 (human constant regions) in FUT8 knockout CHO cells; no fucose attached) VH: QVQLVQSGPEVVKPGASVKISCKASGYTFTIYWLGWVKQAPGQGLEWIGNIFPGSAYINYNEKFKGKATLTADTSTSTAYMELSSLRSEDTAVYFCAREGSNSGYWGQGTLLTVSS VL: DIVMTQSPDSLAVSAGERVTMNCKSSQSLLNSGNQQNYLAWYQQKPGQPPKLLIYGASTRESGVPDRFSGSGSGTDFTLTISSVQAEDVAVYYCQSDHIYPYTFGQGTKLEIK and stop.
Resp: 9.43
